Test: Volume of distribution at steady state in CD-1 mouse at 1 mg/kg, po and 0.5 mg/kg, iv
Assay type: ADME, organism-based
Details: in vivo
Below, each entry is listed with its recorded Vdss.
Answer in L/kg, number only, no unit symbol.

// field: Vdss; key: N#Cc1ccc(N2CCC(c3ccc(OCCCCN4CCN(c5ccc6c(c5)CN(C5CCC(=O)NC5=O)C6=O)CC4)cc3)CC2)c(F)c1C(F)(F)F (stereo unspecified) ; value = 3.4

// field: Vdss; key: N#Cc1ccc(N2CCC(c3ccc(OCCCCN4CCN(c5ccc6c(c5)CN(C5CCC(=O)NC5=O)C6=O)CC4)cc3)CC2)cc1C(F)(F)F (stereo unspecified) ; value = 5.2

// field: Vdss; key: N#Cc1ccc(N2CCC(c3ccc(N4CCC(CN5CCN(c6ccc7c(c6)CN(C6CCC(=O)NC6=O)C7=O)CC5)CC4)cc3)CC2)c(F)c1C(F)(F)F (stereo unspecified) ; value = 2

// field: Vdss; key: N#Cc1ccc(N2CCC(c3ccc(N4CCC(CN5CCN(c6ccc7c(c6)C(=O)N(C6CCC(=O)NC6=O)C7=O)CC5)CC4)cc3)CC2)c(F)c1C(F)(F)F (stereo unspecified) ; value = 6.2

// field: Vdss; key: COc1cc(N2CCN(CC3CCN(c4ccc(C5CCN(c6ccc(C#N)c(C(F)(F)F)c6F)CC5)c(F)c4)CC3)CC2)cc2c1C(=O)N(C1CCC(=O)NC1=O)C2 (stereo unspecified) ; value = 2.2

// field: Vdss; key: COc1cc(N2CCN(CC3CCN(c4cc(F)c(C5CCN(c6ccc(C#N)c(C(F)(F)F)c6F)CC5)c(F)c4)CC3)CC2)cc2c1C(=O)N(C1CCC(=O)NC1=O)C2 (stereo unspecified) ; value = 3.6

====

Below, each entry is listed with its recorded half-life.
Experiment: Half life in CD-1 mouse at 1 mg/kg, po and 0.5 mg/kg, iv bolus
Format: ADME, organism-based
Details: in vivo
Answer in h, number only, no unit symbol.

Some solved entries appear below for comparison.
COc1cc(N2CCN(CC3CCN(c4ccc(C5CCN(c6ccc(C#N)c(C(F)(F)F)c6F)CC5)cc4)CC3)CC2)cc2c1C(=O)N(C1CCC(=O)NC1=O)C2 (stereo not drawn)
9
N#Cc1ccc(N2CCC(c3ccc(OCCCCN4CCN(c5ccc6c(c5)CN(C5CCC(=O)NC5=O)C6=O)CC4)cc3)CC2)cc1C(F)(F)F (stereo not drawn)
5

Consider the record given below.
// field: half-life; key: COc1cc(N2CCN(CC3CCN(c4ccc(C5CCN(c6ccc(C#N)c(C(F)(F)F)c6)CC5)cc4)CC3)CC2)cc2c1C(=O)N(C1CCC(=O)NC1=O)C2 (stereo not drawn) ; value = 6.8

====

Below, each entry is listed with its recorded half-life.
Experiment: Half life in Han Wistar rat at 1 mg/kg, po and 0.5 mg/kg, iv bolus
Assay type: ADME, organism-based
Conditions: in vivo
Answer in h, number only, no unit symbol.

Some solved entries appear below for comparison.
COc1cc(N2CCN(CC3CCN(c4ccc(C5CCN(c6ccc(C#N)c(C(F)(F)F)c6F)CC5)cc4)CC3)CC2)cc2c1C(=O)N(C1CCC(=O)NC1=O)C2 (stereo not drawn)
11
COc1cc(N2CCN(CC3CCN(c4ccc(C5CCN(c6ccc(C#N)c(C(F)(F)F)c6)CC5)cc4)CC3)CC2)cc2c1C(=O)N(C1CCC(=O)NC1=O)C2 (stereo not drawn)
9.1

// field: half-life; key: N#Cc1ccc(N2CCC(c3ccc(OCCCCN4CCN(c5ccc6c(c5)CN(C5CCC(=O)NC5=O)C6=O)CC4)cc3)CC2)cc1C(F)(F)F (stereo not drawn) ; value = 6.6

====

Test: Oral bioavailability in CD-1 mouse at 1 mg/kg
Format: ADME, organism-based
Settings: in vivo
measured-quantity: bioavailability
Number plus unit, in that order.

Some solved entries appear below for comparison.
COc1cc(N2CCN(CC3CCN(c4cc(F)c(C5CCN(c6ccc(C#N)c(C(F)(F)F)c6F)CC5)c(F)c4)CC3)CC2)cc2c1C(=O)N(C1CCC(=O)NC1=O)C2 (stereo not drawn)
30%
N#Cc1ccc(N2CCC(c3ccc(N4CCC(CN5CCN(c6ccc7c(c6)CN(C6CCC(=O)NC6=O)C7=O)CC5)CC4)cc3)CC2)cc1C(F)(F)F (stereo not drawn)
46%

// field: bioavailability; key: N#Cc1ccc(N2CCC(c3ccc(OCCCCN4CCN(c5ccc6c(c5)CN(C5CCC(=O)NC5=O)C6=O)CC4)cc3)CC2)cc1C(F)(F)F (stereo not drawn) ; value = 47%

====

Assay: Half life in Beagle dog at 1 mg/kg, po and 0.5 mg/kg, iv infusion over 0.25 hrs
Assay type: ADME, organism-based, Canis lupus familiaris
Details: in vivo
measured-quantity: half-life
Number plus unit, in that order.

Some solved entries appear below for comparison.
COc1cc(N2CCN(CC3CCN(c4ccc(C5CCN(c6ccc(C#N)c(C(F)(F)F)c6)CC5)cc4)CC3)CC2)cc2c1C(=O)N(C1CCC(=O)NC1=O)C2 (stereo not drawn)
21 h
COc1cc(N2CCN(CC3CCN(c4ccc(C5CCN(c6ccc(C#N)c(C(F)(F)F)c6F)CC5)cc4)CC3)CC2)cc2c1C(=O)N(C1CCC(=O)NC1=O)C2 (stereo not drawn)
12.5 h

Consider the record given below.
// field: half-life; key: N#Cc1ccc(N2CCC(c3ccc(OCCCCN4CCN(c5ccc6c(c5)CN(C5CCC(=O)NC5=O)C6=O)CC4)cc3)CC2)cc1C(F)(F)F (stereo not drawn) ; value = 53.5 h

====

Assay: Oral bioavailability in CD-1 mouse at 1 mg/kg
Format: ADME, organism-based
Conditions: in vivo
measured-quantity: bioavailability (%)
Answer in %, number only, no unit symbol.

Some solved entries appear below for comparison.
N#Cc1ccc(N2CCC(c3ccc(OCCCCN4CCN(c5ccc6c(c5)CN(C5CCC(=O)NC5=O)C6=O)CC4)cc3)CC2)c(F)c1C(F)(F)F (stereo unspecified)
30
COc1cc(N2CCN(CC3CCN(c4ccc(C5CCN(c6ccc(C#N)c(C(F)(F)F)c6)CC5)cc4)CC3)CC2)cc2c1C(=O)N(C1CCC(=O)NC1=O)C2 (stereo unspecified)
50
N#Cc1ccc(N2CCC(c3ccc(N4CCC(CN5CCN(c6ccc7c(c6)C(=O)N(C6CCC(=O)NC6=O)C7=O)CC5)CC4)cc3)CC2)c(F)c1C(F)(F)F (stereo unspecified)
77
COc1cc(N2CCN(CC3CCN(c4ccc(C5CCN(c6ccc(C#N)c(C(F)(F)F)c6F)CC5)cc4)CC3)CC2)cc2c1C(=O)N(C1CCC(=O)NC1=O)C2 (stereo unspecified)
62
N#Cc1ccc(N2CCC(c3ccc(N4CCC(CN5CCN(c6ccc7c(c6)CN(C6CCC(=O)NC6=O)C7=O)CC5)CC4)cc3)CC2)c(F)c1C(F)(F)F (stereo unspecified)
48

Consider the record given below.
// field: bioavailability; key: COc1cc(N2CCN(CC3CCN(c4ccc(C5CCN(c6ccc(C#N)c(C(F)(F)F)c6F)CC5)c(F)c4)CC3)CC2)cc2c1C(=O)N(C1CCC(=O)NC1=O)C2 (stereo unspecified) ; value = 50

====

Target: Protein cereblon/Androgen receptor (Homo sapiens, UniProt P10275+Q96SW2, L702H)
Sequence (P10275 whole entry L702H, stated change not applied): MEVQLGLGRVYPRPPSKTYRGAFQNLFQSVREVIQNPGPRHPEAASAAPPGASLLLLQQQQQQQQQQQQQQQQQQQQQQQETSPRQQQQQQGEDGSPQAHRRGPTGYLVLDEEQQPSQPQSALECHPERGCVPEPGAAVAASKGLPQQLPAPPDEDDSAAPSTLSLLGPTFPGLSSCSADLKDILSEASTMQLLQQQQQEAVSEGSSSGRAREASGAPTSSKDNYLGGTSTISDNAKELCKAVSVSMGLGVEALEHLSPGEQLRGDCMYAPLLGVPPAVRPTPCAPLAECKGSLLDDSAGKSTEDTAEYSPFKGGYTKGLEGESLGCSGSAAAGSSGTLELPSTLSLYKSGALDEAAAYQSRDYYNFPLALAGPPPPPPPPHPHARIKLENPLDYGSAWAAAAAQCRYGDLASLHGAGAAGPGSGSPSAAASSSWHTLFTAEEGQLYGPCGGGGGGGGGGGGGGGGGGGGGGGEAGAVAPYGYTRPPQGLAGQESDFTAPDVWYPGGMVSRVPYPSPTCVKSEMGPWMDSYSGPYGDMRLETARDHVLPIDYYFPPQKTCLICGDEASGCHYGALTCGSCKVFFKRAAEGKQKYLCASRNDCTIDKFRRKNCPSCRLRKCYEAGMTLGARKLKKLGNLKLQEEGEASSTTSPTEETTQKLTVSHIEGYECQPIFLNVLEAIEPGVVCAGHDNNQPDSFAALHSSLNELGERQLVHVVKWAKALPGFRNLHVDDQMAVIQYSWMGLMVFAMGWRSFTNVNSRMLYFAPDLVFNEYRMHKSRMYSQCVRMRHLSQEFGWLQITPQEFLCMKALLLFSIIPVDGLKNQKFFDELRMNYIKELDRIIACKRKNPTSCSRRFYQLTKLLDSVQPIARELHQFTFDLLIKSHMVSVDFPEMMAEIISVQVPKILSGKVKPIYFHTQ
Sequence (Q96SW2 whole entry, stated change not applied): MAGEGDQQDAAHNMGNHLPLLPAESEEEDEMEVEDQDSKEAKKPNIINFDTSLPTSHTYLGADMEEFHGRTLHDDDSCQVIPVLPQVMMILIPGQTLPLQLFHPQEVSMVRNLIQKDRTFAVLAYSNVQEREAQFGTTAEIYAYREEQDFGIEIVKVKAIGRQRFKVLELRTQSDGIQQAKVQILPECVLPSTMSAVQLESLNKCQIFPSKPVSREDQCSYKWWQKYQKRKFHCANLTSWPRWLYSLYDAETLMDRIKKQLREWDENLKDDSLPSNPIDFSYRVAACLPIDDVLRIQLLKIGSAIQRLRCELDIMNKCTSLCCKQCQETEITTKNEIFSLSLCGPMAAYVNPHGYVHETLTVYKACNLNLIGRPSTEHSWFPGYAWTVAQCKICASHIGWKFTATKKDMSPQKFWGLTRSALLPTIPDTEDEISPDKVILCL
Test: PROTAC activity at CRBN/AR L702H mutant (unknown origin) expressed in human LNCaP cells assessed as protein degradation measured after 24 hrs incubation by imaging IF assay
Format: cell-based
Below, each entry is listed with its recorded DC50.

Cc1c(N2CCC(c3ccc(N4CCC(CN5CCN(c6ccc7c(c6)CN(C6CCC(=O)NC6=O)C7=O)CC5)CC4)cc3)CC2)ccc(C#N)c1C(F)(F)F (centres undefined)
> 3 µM
N#Cc1ccc(N2CCC(c3ccc(N4CCC(CN5CCN(c6ccc7c(c6)CN(C6CCC(=O)NC6=O)C7=O)CC5)CC4)cc3)CC2)cc1C(F)(F)F (centres undefined)
> 3 µM
COc1cc(N2CCN(CC3CCN(c4ccc(C5CCN(c6ccc(C#N)c(C(F)(F)F)c6)CC5)cc4)CC3)CC2)cc2c1C(=O)N(C1CCC(=O)NC1=O)C2 (centres undefined)
> 3 µM

// field: DC50; key: N#Cc1ccc(N2CCC(c3ccc(OCCCCN4CCN(c5ccc6c(c5)CN(C5CCC(=O)NC5=O)C6=O)CC4)cc3)CC2)cc1C(F)(F)F (centres undefined) ; value = > 3 µM
